Quick reference: AUC(0-t) of the listed items.
- Measurement Notes: Pharmacokinetic test in mice
- Type: in vivo, ICR mice
- Condition Label: male, ICR, mouse, iv, i.v. 2.5 mg/kg, plasma
- Procedure: 8.1 Experimental animals: male ICR mice, 20 to 25 g, 18 mice/compound, purchased from Chengdu Ddossy Experimental Animals Co., Ltd. 8.2 Experimental design: on the day of the experiment, 36 ICR mice were randomly grouped according to their body weights. […] Before and after the administration, 0.06 mL of blood was taken from the orbit of the animals under isoflurane anesthesia and placed in an EDTAK2 centrifuge tube. […] The samples were analyzed quantitatively by LC-MS/MS.
Provide only the numeric value, understood in µg·h/mL.

Molecule	AUC(0-t) / µg·h/mL
CCc1cc2ncc(CN3CCN(c4ccc(C(=O)NC5CCN(c6ccc7c(c6)C(=O)N(C6CCC(=O)NC6=O)C7=O)CC5)nc4)CC3)cc2[nH]c1=O (centres unmarked)	20.6

Now, please, on to the next molecule.
Give the measured AUC(0-t) for CCc1cc2ncc(CN3CC=C(c4ccc(C(=O)Nc5cnn(C6CCN(c7ccc8c(c7)C(=O)N(C7CCC(=O)NC7=O)C8=O)CC6)c5)nc4)CC3)cc2[nH]c1=O (centres unmarked) 224
